Provenance of the data: patent US20090227619A1

Field: Body weight of the animals, end, First time. Provide a value for each of the compounds that follow.
test system: S180 sarcoma; settings: S180 sarcoma; Dosage 100 (mg/ml), ip × 10qd; first time
Numbers only, in g.

The examples below pair each entry with its known result.
[[record]]
compound = "CCOC(=O)c1cc2c3ccccc3n(CC)c2cn1 [Compound 31, ethyl 9-ethyl-β-carboline-3-carboxylate]"
assay_value = 26.1

[[record]]
compound = "CCOC(=O)Nc1cc2c3ccccc3n(Cc3ccccc3)c2cn1 [Compound 55]"
assay_value = 26.7

[[record]]
compound = "CCOC(=O)c1cc2c3ccccc3n(Cc3ccccc3)c2cn1 [Compound 33, ethyl 9-benzyl-β-carboline-3-carboxylate]"
assay_value = 24.6

[[record]]
compound = "OCc1cc2c3ccccc3n(Cc3ccccc3)c2cn1 [Compound 42, 9-benzyl-3-hydroxymethyl-β-carboline]"
assay_value = 24.3

[[record]]
compound = "CCCCn1c2ccccc2c2cc(C(=O)O)ncc21 [Compound 36, 9-butyl-β-carboline-3-carboxylic acid]"
assay_value = 24.5

[[record]]
compound = "COC(=O)c1cc2c([nH]c3ccccc32)c(-c2ccccc2)n1 [Compound 14]"
assay_value = 25.5


Can you give me Body weight of the animals, end, First time for all of these, one by one?
1. O=C(O)c1cc2c(cn1)[nH]c1ccccc12 [Compound 17, β-carboline-3-carboxylic acid]
2. COC(=O)c1cc2c([nH]c3ccccc32)c(-c2ccc(OC)cc2)n1 [Compound 15]
3. c1ccc(Cn2c3ccccc3c3ccncc32)cc1 [Compound 84, 9-Benzyl-β-carboline]
4. O=C(O)c1cc2c3ccccc3n(CCCc3ccccc3)c2cn1 [Compound 48]

1: 24.2; 2: 26.0; 3: 26.4; 4: 24.8

Measured Body weight of the animals, end, First time, CCOC(=O)c1cc2c(cn1)[nH]c1ccccc12 [Compound 10, ethyl β-carboline-3-carboxylate] : 25.5

###

test system: BGC-823; assay: In vitro cytotoxicity, IC50 by MTT method, BGC-823; format: cell-based; conditions: Homo sapiens, BGC-823; BGC823 cell strain; read-out: IC50 BGC823
Field: pIC50. Provide a value for each of the molecules that follow.
Numbers only, as −log10 of the molar value.

Can you give me pIC50 for all of these, one by one?
1. CCn1c2ccccc2c2ccncc21
2. CCn1c2ccccc2c2cc(C(=O)O)nc(-c3ccccc3)c21
3. CCCc1nc(C(=O)O)cc2c3ccccc3n(C)c12
4. CCOC(=O)c1cc2c3ccccc3n(Cc3ccccc3)c2cn1 [Compound 33, ethyl 9-benzyl-β-carboline-3-carboxylate]
5. CCCc1nc(C(=O)OCC)cc2c3ccccc3n(Cc3ccccc3)c12
6. O=C(O)c1cc2c3ccccc3n(Cc3ccccc3)c2cn1

1: 3.77; 2: 3.60; 3: 3.27; 4: 3.82; 5: 3.00; 6: 4.30

###

tested on: NIH3T3; assay: In vitro cytotoxicity, IC50 by MTT method, NIH3T3; type: cell-based; settings: Mus musculus; NIH3T3 cell strain; read-out: IC50 NIH3T3
quantity-name: pIC50
Numbers only, as −log10 of the molar value.

The examples below pair each entry with its known result.
[[record]]
molecule = "Cc1nc(C(=O)O)cc2c3ccccc3n(C)c12 [Compound 62]"
assay_value = 3.20

[[record]]
molecule = "CCCCn1c2ccccc2c2cc(C(=O)O)ncc21 [Compound 36, 9-butyl-β-carboline-3-carboxylic acid]"
assay_value = 4.70

[[record]]
molecule = "CCCCn1c2ccccc2c2cc(C(=O)OC)ncc21 [Compound 28]"
assay_value = 4.10


Can you give me pIC50 for all of these, one by one?
1. Cn1c2ccccc2c2cc(C(=O)O)ncc21 [Compound 34, 9-methyl-β-carboline-3-carboxylic acid]
2. Cn1c2ccccc2c2cc(C(=O)O)nc(-c3ccccc3)c21 [Compound 78]
3. OCc1cc2c3ccccc3n(Cc3ccccc3)c2cn1 [Compound 42, 9-benzyl-3-hydroxymethyl-β-carboline]
4. CCn1c2ccccc2c2cc(C(=O)OC)ncc21 [Compound 27, methyl 9-ethyl-β-carboline-3-carboxylate]
5. CCn1c2ccccc2c2cc(C(=O)O)nc(C)c21 [Compound 63]
6. CCn1c2ccccc2c2cc(C(=O)OC)nc(-c3ccccc3)c21 [Compound 77]
7. CCCc1nc(C(=O)OCC)cc2c3ccccc3n(C)c12 [Compound 68]
8. CCn1c2ccccc2c2ccncc21 [Compound 82, 9-ethyl-β-carboline]

3.89
3.82
4.05
3.89
3.15
3.85
4.10
4.00

Can you give me pIC50 for all of these, one by one?
1. O=C(O)c1cc2c3ccccc3n(Cc3ccccc3)c2cn1 [Compound 37, 9-benzyl-β-carboline-3-carboxylic acid]
2. CCn1c2ccccc2c2cc(C(=O)O)nc(-c3ccccc3)c21 [Compound 79]

1: 4.30; 2: 3.92
